# Target of assay: AMPK complex 1 (containing alpha1beta1gamma1) (Homo sapiens, UniProt Q13131+Q9Y478)
# Construct: GST (Glutathion S transferase) (N); virus made in Sf9, expression in High Five cells
# Sequence (Q13131 whole entry): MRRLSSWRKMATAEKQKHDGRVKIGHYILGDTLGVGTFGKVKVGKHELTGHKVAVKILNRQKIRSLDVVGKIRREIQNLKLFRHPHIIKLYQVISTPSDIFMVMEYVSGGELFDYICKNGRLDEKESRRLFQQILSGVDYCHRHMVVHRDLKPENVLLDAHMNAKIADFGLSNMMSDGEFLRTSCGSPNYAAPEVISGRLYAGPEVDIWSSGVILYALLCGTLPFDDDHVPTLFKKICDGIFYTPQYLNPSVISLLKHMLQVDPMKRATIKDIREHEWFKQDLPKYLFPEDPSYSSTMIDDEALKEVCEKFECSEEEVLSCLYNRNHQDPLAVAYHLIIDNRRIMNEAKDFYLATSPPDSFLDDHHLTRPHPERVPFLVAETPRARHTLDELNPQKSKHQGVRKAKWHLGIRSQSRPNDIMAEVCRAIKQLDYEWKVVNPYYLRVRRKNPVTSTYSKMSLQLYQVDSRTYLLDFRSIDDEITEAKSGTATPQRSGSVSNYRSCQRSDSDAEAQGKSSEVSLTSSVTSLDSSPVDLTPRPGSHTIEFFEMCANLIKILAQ
# Sequence (Q9Y478 whole entry): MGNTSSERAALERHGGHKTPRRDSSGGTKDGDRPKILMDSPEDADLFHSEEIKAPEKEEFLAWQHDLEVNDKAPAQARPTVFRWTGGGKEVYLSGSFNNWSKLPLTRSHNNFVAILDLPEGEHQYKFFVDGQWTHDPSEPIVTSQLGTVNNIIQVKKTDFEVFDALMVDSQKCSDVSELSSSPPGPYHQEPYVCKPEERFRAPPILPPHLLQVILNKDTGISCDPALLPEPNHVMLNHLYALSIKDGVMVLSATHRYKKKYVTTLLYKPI
# Sequence (P54619 whole entry partner): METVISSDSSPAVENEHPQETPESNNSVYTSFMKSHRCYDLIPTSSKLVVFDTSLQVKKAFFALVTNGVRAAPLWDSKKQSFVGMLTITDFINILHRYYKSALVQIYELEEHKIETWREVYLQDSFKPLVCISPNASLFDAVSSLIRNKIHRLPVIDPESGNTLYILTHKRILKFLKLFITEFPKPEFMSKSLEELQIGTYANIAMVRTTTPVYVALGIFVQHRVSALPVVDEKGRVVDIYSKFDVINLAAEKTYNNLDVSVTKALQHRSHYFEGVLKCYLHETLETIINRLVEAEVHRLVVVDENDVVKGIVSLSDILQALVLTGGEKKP
# Protocol: In vitro AMPK activation assay (ADP-Glo Kinase Assay)
# Conditions used: 30 μM ATP, 1 μM peptide, 60 min, room temperature
# Method: Activated AMPK complex 1 (containing alpha1beta1gamma1) was obtained from baculovirus expression system. […] The protein buffer was then exchanged to PBS with 10% glycerol and protein concentration was determined by UV absorbance. […] The luminescence signal generated was proportional to the ADP concentration produced and was correlated with AMPK activity. […] (RLU(sample)/RLU(low control))*100[RLU=relative luminescence units] […]
Readout label: pEC50
Friendly reminder that pEC50 comes from taking -log10 of the concentration in mol/L.

# value lookup — system AMPK complex 1 (containing alpha1beta1gamma1) (Homo sapiens, UniProt Q13131+Q9Y478), readout pEC50, item CS(C)(=O)=NCc1ccc(-c2ccc(-c3nc4[nH]c(O[C@@H]5CO[C@H]6[C@@H]5OC[C@H]6O)nc4cc3Cl)cc2)cn1
7.04

Form field: pEC50 recorded for CS(C)(=O)=Nc1ccc(-c2ccc(-c3nc4[nH]c(O[C@@H]5CO[C@H]6[C@@H]5OC[C@H]6O)nc4cc3Cl)cn2)cc1 with AMPK complex 1 (containing alpha1beta1gamma1) (Homo sapiens, UniProt Q13131+Q9Y478) (enter value)
7.89

Kindly state the measured pEC50 obtained for CN=S1(=O)CCN(c2ccc(-c3nc4[nH]c(O[C@@H]5CO[C@H]6[C@@H]5OC[C@H]6O)nc4cc3Cl)cc2)CC1 with AMPK complex 1 (containing alpha1beta1gamma1) (Homo sapiens, UniProt Q13131+Q9Y478).
7.21

Find the measured pEC50: item CS(C)(=O)=NCC1CCN(c2ccc(-c3nc4[nH]c(O[C@@H]5CO[C@H]6[C@@H]5OC[C@H]6O)nc4cc3Cl)cc2)CC1 , target or system AMPK complex 1 (containing alpha1beta1gamma1) (Homo sapiens, UniProt Q13131+Q9Y478).
7.77

What reported pEC50 corresponds to CS(C)(=O)=Nc1ccc2c(n1)CN(c1ccc(-c3nc4[nH]c(O[C@@H]5CO[C@H]6[C@@H]5OC[C@H]6O)nc4cc3Cl)cc1)C2 on AMPK complex 1 (containing alpha1beta1gamma1) (Homo sapiens, UniProt Q13131+Q9Y478)?
7.18

The measured values listed here are drawn from patent US9492436B2.
